Each entry below carries its recorded Inhibition.
System: Cryptococcus neoformans
measurement parameters: Concentration 20 uM; ASSAY_TEST Inhibition of Fungal Growth; detection method Resazurin; Absorption (OD600-OD570); plate type 384well; NBS; CORNING #3640
Description: Antifungal activity against Cryptococcus neoformans H99 ATCC 208821 (CO-ADD:FG_002); MIC in YNB media using NBS plates, by Resazurin OD(600-570)
Results with a measured potency or affinity are listed apart.
Write down the value, and be sure its unit follows.

| molecule | Inhibition |
| --- | --- |
| O=c1c(-c2ccccc2)c1-c1ccccc1 | 10.54% |

Form entry - test system: Cryptococcus neoformans; read-out: Inhibition; molecule: COC(=O)C1=C(C)NC(C)=C(C(=O)OC(C)C)C1c1cccc2nonc12 (stereo not given)
-5.25%

How about CC(N)C12CC3CC(CC(C3)C1)C2.Cl (stereo not given) [RIMANTADINE HYDROCHLORIDE] ?
-3.72%

Also Cl.Clc1cccc(Cl)c1NC1=NCCN1 [CLONIDINE HYDROCHLORIDE] , if possible.
-10.31%

Same read-out for COc1ccc2cc(CCC(C)=O)ccc2c1 ?
-7.4%

Sourced from ChEMBL document CHEMBL4513141
